meta.source: patent US5952321A

assayed-system: Human Polymorphonuclear Leukocyte Elastase (Homo sapiens, UniProt P08246)
Sequence (P08246 30-267): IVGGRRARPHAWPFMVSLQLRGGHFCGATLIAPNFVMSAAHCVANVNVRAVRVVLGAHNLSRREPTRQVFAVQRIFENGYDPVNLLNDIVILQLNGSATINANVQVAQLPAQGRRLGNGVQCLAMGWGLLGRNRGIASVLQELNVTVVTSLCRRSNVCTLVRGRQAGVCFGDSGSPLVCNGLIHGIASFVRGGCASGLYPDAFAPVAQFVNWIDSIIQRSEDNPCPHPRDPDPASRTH
assay-details: Inhibition of human polymorphonuclear leukocyte elastase via hydrolysis of Boc-AAPAN or Boc-AAPVN
Type: biochemical
test-context: pH 7.5, Table I; second order rate constant for inactivation of the enzyme; read-out: Kobs /[I]
Give Condition met when the value for kinact/KI is at least 900000 M⁻¹ s⁻¹. Give Condition not met when it is less.

| compound | label-value |
| --- | --- |
| CCC[C@@H](NC(=O)N1C(=O)C(CC)(CC)[C@@H]1Oc1ccc(CN(C)C(C)C)cc1)c1ccc(C)cc1 [R4=Me; R5=i-Pr; R6=H] | Condition not met |
| CCC[C@@H](NC(=O)N1C(=O)C(CC)(CC)[C@@H]1Oc1ccc(C(CC)N(C)CCOC)cc1)c1ccc(C)cc1 (stereo partly drawn) [R4=Me; R5=CH2 CH2 OMe; R6=Et] | Condition not met |
| CCCNC(=O)NCc1ccc(O[C@@H]2N(C(=O)N[C@H](CCC)c3ccc(C)cc3)C(=O)C2(CC)CC)cc1 [R4=H; R5=CONHnPr; R6=H] | Condition met |
| CCC[C@@H](NC(=O)N1C(=O)C(CC)(CC)[C@@H]1Oc1ccc(C2CCCN2CCOC)cc1)c1ccc(C)cc1 (mixture of isomers) [R4=CH2 CH2 OMe; R5+R6=--CH2 CH2 CH2 --] | Condition met |
| CCC[C@@H](NC(=O)N1C(=O)C(CC)(CC)[C@@H]1Oc1ccc(CN2CC(C)NC(C)C2)cc1)c1ccc(C)cc1 (stereo partly drawn) [R4+R5=--CH2 CHMeNCHMeCH2 --; R6=H] | Condition met |
| CCC[C@@H](NC(=O)N1C(=O)C(CC)(CC)[C@@H]1Oc1ccc(CNC(=O)Cc2cccnc2)cc1)c1ccc(C)cc1 [R4=H; R5=COCH2-3-pyridyl; R6=H] | Condition met |
